The entries below come with measured apparent KD of MS2 coat protein values attached.
Tested on: MS2 coat protein
Experiment: apparent KD of MS2 coat protein; designed switch direction (-1 OFF switch, 1 ON switch): -1; higher = weaker reporter binding
Details: input ligand: FMN 200 uM
OBSERVED_PROPERTY: apparent KD of MS2 coat protein (nM)

SEQUENCE_INPUT: AUAUAGCGAGGAUAUACAUGAGGAUCACCCAUGUAGGUUCCGGGUUUUCCAGUAAAAUGUAGAAGGCGCAUGGA [EX3 B.5] (Eterna round: R97, puzzle: Exclusion 3)
REPORTED: 99.4

SEQUENCE_INPUT: UUUAUCCGAGGAUAUACAGAAUGAAUGUGAAAUGAAUGAUGACAUGAGGAUCACCCAUGUAGAAGGCGGAUAUA [Default title] (Eterna round: R97, puzzle: Exclusion 2)
REPORTED: 404

SEQUENCE_INPUT: ACAUGAGGAUCACCCAUGUAAACAUAAUGGCUCAUGUAGAGUCAGGAUAUGCGUGGCGAACAAACGCAGAAGGGACAAGACUGG [Deportation 26 - Jieux - Exclusion NG 3] (Eterna round: R96, puzzle: Exclusion NG 3)
REPORTED: 28.1

SEQUENCE_INPUT: CGGGUGAACAGAGGAUAUCGUACAUGAGGAUCACCCAUGUAAUAAAUGAGAAUUUCGAAUGUAAUCGAGAAGGCUGGAAAACCC [Ostracism 93 - Jieux - Exclusion NG 2] (Eterna round: R96, puzzle: Exclusion NG 2)
REPORTED: 228

SEQUENCE_INPUT: GCUUGUGGGCAAGGAUAUCCUACGUUGUUCUGGUUCGUGUCUGUCACAUGAGGAUCACCCAUGUGGGAGAAGGUGCCUUUGGUG [Design 62] (Eterna round: R96, puzzle: Exclusion NG 2)
REPORTED: 23.2
